# assayed-system: DPP1 in HL-60 cells (Homo sapiens (Human))
# Sequence (P53634 25-134): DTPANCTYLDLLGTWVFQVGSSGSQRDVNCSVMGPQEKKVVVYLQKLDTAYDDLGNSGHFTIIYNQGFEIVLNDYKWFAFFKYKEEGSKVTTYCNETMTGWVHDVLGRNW
# Sequence (P53634 231-394): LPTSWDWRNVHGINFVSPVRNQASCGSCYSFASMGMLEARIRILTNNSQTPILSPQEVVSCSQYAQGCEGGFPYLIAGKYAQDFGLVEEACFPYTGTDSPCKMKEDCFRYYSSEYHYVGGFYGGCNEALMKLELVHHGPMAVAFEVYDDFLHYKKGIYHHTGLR
# Sequence (P53634 395-463): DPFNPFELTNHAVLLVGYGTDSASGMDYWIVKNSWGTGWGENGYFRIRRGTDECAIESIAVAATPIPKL
# experiment-summary: DPP1 cell single-point percent inhibition testing (HL-60 cells, H-Gly-Phe-AFC substrate)
# Format: cell-based
# experimental-parameters: read-out: DPP1 cell % inhibition @ 5 nM, 5 nM compound, 100 μM H-Gly-Phe-AFC, 60 min pre-incubation at 37° C.
recorded-endpoint: inhibition at 0.005 µM

CO[C@@H](CN(C)C)C(=O)N[C@H](C#N)Cc1ccc(-c2ccc3oc(=O)n(CCN(C)C)c3c2)cc1F : ≤ 76.5%
CO[C@@H](CN(C)C)C(=O)N[C@H](C#N)Cc1ccc(-c2ccc3c(c2)C2(CCN(C4COC4)CC2)OC3)cc1F : ≤ 76.5%
CO[C@@H](CN(C)C)C(=O)NC(C#N)Cc1cc2c(cc1F)-c1cc(C#N)ccc1CO2 (stereo partly shown) : ≤ 76.5%
CN(C)C[C@](C)(O)C(=O)N[C@H](C#N)Cc1ccc(-c2ccc3c(c2)C2(CCN(C4COC4)CC2)OC3)cc1 : ≤ 76.5%
CO[C@@H](CN(C)C)C(=O)N[C@H](C#N)Cc1ccc(-c2ccc3nnn(C)c3c2)cc1F : 76.5 to 93.9%
CO[C@@H](CN(C)C)C(=O)N[C@H](C#N)Cc1ccc(-c2ccc(CN3CCN(C)CC3)cc2)cc1 : 76.5 to 93.9%

Ask: Please look at this compound and report its inhibition at 0.005 µM: "CO[C@@H](CN(C)C)C(=O)N[C@H](C#N)Cc1ccc(-c2ccc(S(=O)(=O)N3CCC3)cc2)cc1F"
Result: ≤ 76.5%

The origin of these recorded values is patent US20260008758A1.
